The values you see were collected from paper PMC9482650.

- MEASURED TARGET: Inadl_6, Q8NI35
- Sequence (Q8NI35 1058-1167): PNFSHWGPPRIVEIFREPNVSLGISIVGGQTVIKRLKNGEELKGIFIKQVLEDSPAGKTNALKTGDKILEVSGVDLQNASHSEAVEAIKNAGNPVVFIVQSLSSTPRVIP
- METHOD: holdup assay
- Design: key: below the threshold = too weak to quantify, mostly under pKd 3.1 to 4
- TEST CONTEXT: plain residues with an end cap or a label only (N-terminal biotin on a linker: ado-ado)
REPORTED PROPERTY: pKd

Some binders with recorded pKd:
DYSNLRETDI [ADRA1D, P25100]	3.73
SQPLLVHDDV [KIT, P10721]	below the threshold
KAEEKPPSKV [SCN4B, Q8IWT1]	below the threshold
PKSNSSKEYV [CLDN7, O95471]	below the threshold
RGKNRRQSIF [CDK18, Q07002]	below the threshold
EFKQTSSFLV [JAM1, Q9Y624]	below the threshold
EPAKETTTNV [SLC2A3, P11169]	below the threshold
EAVTVESTSL [SLC22A11, Q9NSA0]	3.94
THREVKFTSL [CD46, P15529]	3.7
STYCDYTIEI [FAM71C, Q8NEG0]	below the threshold

Q: Answer with reported pKd of PAALPESTHM [SLC9A3, P48764]
Result: below the threshold

Q: For the binder SAGADSETHC [SLCO1B1, Q9Y6L6] , give its reported pKd.
Result: below the threshold
